These measurements were taken from patent US20260258084A1.

Consider the following compounds and their measured IC50 readings.
# measurement_target: human interleukin-23 receptor (recombinant human IL-23R-Fc chimera) (Homo sapiens)
# Construct: Fc (IgG Fc fusion)
# procedure_details: Human ELISA IL23/IL23R (assay for specific human IL23R antagonists)
# Format: binding
# reported_conditions: Table 10; read-out: Human ELISA IL23/IL23R IC50
Starred links: 1 amine or outer side, 2 acyl side, 3 side chain; linkers in the order of their positions; H or OH if unused. Positions of bridges follow the written chain, without caps; N, C: chain ends. Non-standard residues stand in square brackets, D forms with d. Residues, ends and D or L forms follow the SMILES beside them. *: point of attachment. X6 = O=C(CCC(=O)[*:3])N[C@@H](CS[*:2])C(=O)[*:1]; Trp(7-Me) = Cc1cccc2c(C[C@H](N)C(=O)O)c[nH]c12; 2Nal = N[C@@H](Cc1ccc2ccccc2c1)C(=O)O; 3Pal = N[C@@H](Cc1cccnc1)C(=O)O; αMeL = CC(C)C[C@](C)(N)C(=O)O; Thp = NC1(C(=O)O)CCOCC1; Me2NCH2CH2 = CN(C)CC*; Aib = CC(C)(N)C(=O)O; Ava = NCCCCC(=O)O; βAla = NCCC(=O)O; Sar = CNCC(=O)O

[
  {
    "compound": "C[C@@H](O)[C@@H]1NC(=O)[C@H](CC(N)=O)NC(=O)[C@@H]2CSSC[C@H](NC(=O)[C@H](CCC(N)=O)NC(=O)[C@H](Cc3c[nH]c4ccccc34)NC1=O)C(=O)N[C@@H](Cc1ccc(OCCN(C)C)cc1)C(=O)N[C@H](Cc1ccc3ccccc3c1)C(=O)NC(C)(C)C(=O)N[C@H](C(=O)N[C@@H](CC(N)=O)C(=O)N[C@@H](CC(N)=O)C(N)=O)CCC(=O)NCCCCC(=O)N2 [compound 8]",
    "IC50 / nM": 0.24
  },
  {
    "compound": "CC(=O)NCCCC[C@@H]1NC(=O)[C@H](Cc2c[nH]c3c(C)cccc23)NC(=O)[C@H]([C@@H](C)O)NC(=O)[C@H](CC(N)=O)NC(=O)[C@@H]2CSSC[C@H](NC1=O)C(=O)N[C@@H](Cc1ccc(OCCN(C)C)cc1)C(=O)N[C@@H](Cc1ccc3ccccc3c1)C(=O)NC1(CCOCC1)C(=O)N[C@H](C(=O)N[C@@H](CC(N)=O)C(=O)N[C@@H](Cc1c[nH]cn1)C(=O)NCCC(N)=O)CCC(=O)NCCCCC(=O)N2 [compound 49] ([Ava]CNT[Trp(7-Me)]K(Ac)CY(Me2NCH2CH2)[2Nal][Thp]ENH[βAla]-NH2; disulfide 2-7; lactam N-11)",
    "IC50 / nM": 0.33
  },
  {
    "compound": "COc1ccc(C[C@@H]2NC(=O)[C@@H]3CSSC[C@H](NC(=O)CCCCNC(=O)CC[C@@H](C(=O)N[C@@H](CC(N)=O)C(=O)NCC(N)=O)NC(=O)C(C)(C)NC(=O)[C@H](Cc4ccc5ccccc5c4)NC2=O)C(=O)N[C@@H](CC(N)=O)C(=O)N[C@@H]([C@@H](C)O)C(=O)N[C@@H](Cc2c[nH]c4ccccc24)C(=O)N[C@@H](CCC(N)=O)C(=O)N3)cc1 [compound 4] ([Ava]CNTWQCY(Me)[2Nal][Aib]ENG-NH2; disulfide 2-7; lactam N-11)",
    "IC50 / nM": 0.95
  },
  {
    "compound": "Cc1cccc2c(C[C@@H]3NC(=O)[C@H]([C@@H](C)O)NC(=O)[C@H](CC(N)=O)NC(=O)[C@@H]4CSSC[C@H](NC(=O)[C@H](CCC(N)=O)NC3=O)C(=O)N[C@@H](Cc3ccc(OCCN(C)C)cc3)C(=O)N[C@@H](Cc3ccc5ccccc5c3)C(=O)NC(C)(C)C(=O)N[C@H](C(=O)N[C@@H](CC(N)=O)C(=O)N[C@@H](Cc3cccnc3)C(=O)N(C)CC(N)=O)CCC(=O)NCCCCC(=O)N4)c[nH]c12 [compound 62] ([Ava]CNT[Trp(7-Me)]QCY(Me2NCH2CH2)[2Nal][Aib]EN[3Pal][Sar]-NH2; disulfide 2-7; lactam N-11)",
    "IC50 / nM": 0.35
  },
  {
    "compound": "CC(=O)NCCCC[C@@H]1NC(=O)[C@H](Cc2c[nH]c3c(C)cccc23)NC(=O)[C@@H](NC(C)=O)CCCCNC(=O)[C@@H]2CSSC[C@H](NC1=O)C(=O)N[C@@H](Cc1ccc(OCCN(C)C)cc1)C(=O)N[C@@H](Cc1ccc3ccccc3c1)C(=O)NC(C)(C)C(=O)N[C@H](C(=O)N[C@@H](CC(N)=O)C(=O)N[C@@H](Cc1cccnc1)C(=O)N(C)CC(N)=O)CCCCNC(=O)CCC(=O)N2 [compound 104] (Ac-K[Trp(7-Me)]K(Ac)CY(Me2NCH2CH2)[2Nal][Aib]KN[3Pal][Sar]-NH2; linker 1-4-8 via X6)",
    "IC50 / nM": 0.64
  },
  {
    "compound": "CC(=O)NCCCC[C@@H]1NC(=O)[C@H](Cc2c[nH]c3c(C)cccc23)NC(=O)[C@@H](NC(C)=O)CCCCNC(=O)[C@@H]2CSSC[C@H](NC1=O)C(=O)N[C@@H](Cc1ccc(OCCN(C)C)cc1)C(=O)N[C@@H](Cc1ccc3ccccc3c1)C(=O)N[C@@](C)(CC(C)C)C(=O)N[C@H](C(=O)N[C@@H](CC(N)=O)C(=O)N[C@@H](Cc1cccnc1)C(=O)N(C)CC(N)=O)CCCCNC(=O)CCC(=O)N2 [compound 106] (Ac-K[Trp(7-Me)]K(Ac)CY(Me2NCH2CH2)[2Nal][αMeL]KN[3Pal][Sar]-NH2; linker 1-4-8 via X6)",
    "IC50 / nM": 0.65
  },
  {
    "compound": "CC[C@H](C)[C@H](NC(=O)[C@H](CC(N)=O)NC(=O)[C@H](CC(N)=O)NC(=O)[C@@H]1CCC(=O)NCCCCC(=O)N[C@H]2CSSC[C@H](NC(=O)[C@H](CCC(N)=O)NC(=O)[C@H](Cc3c[nH]c4ccccc34)NC(=O)[C@H]([C@@H](C)O)NC(=O)[C@H](CC(N)=O)NC2=O)C(=O)N[C@@H](Cc2ccc(OCCN(C)C)cc2)C(=O)N[C@@H](Cc2ccc3ccccc3c2)C(=O)NC(C)(C)C(=O)N1)C(N)=O [compound 57] ([Ava]CNTWQCY(Me2NCH2CH2)[2Nal][Aib]ENNI-NH2; disulfide 2-7; lactam N-11)",
    "IC50 / nM": 0.23
  },
  {
    "compound": "CC(=O)NCCCC[C@@H]1NC(=O)[C@H](Cc2c[nH]c3c(C)cccc23)NC(=O)[C@@H](NC(C)=O)CCCCNC(=O)[C@@H]2CSSC[C@H](NC1=O)C(=O)N[C@@H](Cc1ccc(OCCN(C)C)cc1)C(=O)N[C@@H](Cc1ccc3ccccc3c1)C(=O)NC1(CCOCC1)C(=O)N[C@H](C(=O)N[C@@H](CC(N)=O)C(=O)N[C@@H](Cc1cccnc1)C(=O)N(C)CC(N)=O)CCCCNC(=O)CCC(=O)N2 [compound 105] (Ac-K[Trp(7-Me)]K(Ac)CY(Me2NCH2CH2)[2Nal][Thp]KN[3Pal][Sar]-NH2; linker 1-4-8 via X6)",
    "IC50 / nM": 0.55
  }
]
